- Tested on: Plasmodium berghei
- Test Protocol: animal or person
- Type: in vivo, Plasmodium berghei (strain ANKA) in mice
- Measurement Conditions: Plasmodium berghei, sc; single subcutaneous dose of 10 mg/kg, mice, blood smears 48 h after treatment; read-out: Growth inhibition in % after sc administration (GI%, percentage reduction of the parasitemia)
- Description: Test method for the determination of the activity against Plasmodium berghei in vivo The preparations are tested on mice infected with malaria pathogens (Plasmodium berghei). […] 48 hours after the treatment (D+3) blood smears are prepared from all animals using blood from tail veins and are stained with giemsa. […] The difference in the average values of the infection rates of control group (100%) and treated groups is calculated and expressed as a percentage reduction (GI%). […]
Structures can show the parent of a compound that is named as a salt.

{"columns": ["Compound", "Unit", "inhibition in vivo at 10 mg/kg"],
 "data": [
  ["Cl.Cl.FC(F)(F)c1cc(CN[C@H]2CC[C@@H](Nc3ccnc4cc(Cl)ccc34)CC2)cc(C(F)(F)F)c1 [Example 77, dihydrochloride]", "%", 98],
  ["Cl.Cl.Clc1ccc(CN[C@H]2CCCC[C@@H]2Nc2ccnc3cc(Cl)ccc23)c(Cl)c1 [Example 62, dihydrochloride]", "%", 99.8],
  ["COc1cc(CN[C@H]2CC[C@H](Nc3ccnc4cc(Cl)ccc34)CC2)cc(OC)c1OC.Cl.Cl [Example 112, dihydrochloride]", "%", 99.9],
  ["Cl.Cl.Clc1ccc2c(N[C@H]3CC[C@H](NCCc4ccc(Oc5ccccc5)cc4)CC3)ccnc2c1 [Example 98, dihydrochloride]", "%", 93],
  ["COc1ccc(O)c(CN[C@H]2CC[C@@H](Nc3ccnc4cc(Cl)ccc34)CC2)c1.Cl.Cl [Example 80, dihydrochloride]", "%", 100],
  ["Cl.Cl.Clc1ccc2c(N[C@H]3CC[C@H](NCCc4ccc5c(c4)OCO5)CC3)ccnc2c1 [Example 95, dihydrochloride]", "%", 99.7],
  ["CC(C)(CNc1ccnc2cc(Cl)ccc12)NCc1ccc(Cl)cc1 [Example 25, dihydrochloride]", "%", 99.8],
  ["COc1cc(CN[C@H]2CC[C@@H](Nc3ccnc4cc(Cl)ccc34)CC2)cc(OC)c1.Cl.Cl [Example 82, dihydrochloride]", "%", 99.9],
  ["COc1cc(CNC(C)(C)CNc2ccnc3cc(Cl)ccc23)ccc1O.Cl.Cl [Example 33, dihydrochloride]", "%", 97],
  ["Cl.Cl.Clc1cc(Cl)cc(CN[C@H]2CC[C@@H](Nc3ccnc4cc(Cl)ccc34)CC2)c1 [Example 75, dihydrochloride]", "%", 99.7],
  ["CSc1ccc(CN[C@H]2CC[C@@H](Nc3ccnc4cc(Cl)ccc34)CC2)cc1.Cl.Cl [Example 83, dihydrochloride]", "%", 100],
  ["CC(C)(CNc1ccnc2cc(Cl)ccc12)NCc1cccc(C(F)(F)F)c1 [Example 8]", "%", 95],
  ["Cl.Cl.Clc1ccc2c(N[C@H]3CC[C@H](NCc4ccc(Cl)c(Cl)c4)CC3)ccnc2c1 [Example 102, dihydrochloride]", "%", 81],
  ["COc1cc(CCN[C@H]2CC[C@H](Nc3ccnc4cc(Cl)ccc34)CC2)cc(OC)c1.Cl.Cl [Example 94, dihydrochloride]", "%", 99.9]
]}
